# Tested on: Bacillus mycoides
# PROCEDURE DETAILS: microbe, parasite or virus in culture
# Format: cell-based
# CONDITION NOTES: read-out: Inhibition zone
Record form. Attribute: zone of inhibition at 1250 µg/mL. Fill in for each entry.
Numbers only, in mm.

Example results:
>>> recorded_measurement("Cc1ccc(S(=O)(=O)NC(=O)Nc2ccc(C(F)(F)F)cc2)cc1 [Compound 7]")
26
>>> recorded_measurement("Cc1ccc(S(=O)(=O)NC(=O)Nc2ccc(OC(F)(F)F)cc2)cc1 [Compound 8]")
26
>>> recorded_measurement("Cc1ccc(S(=O)(=O)NC(=O)Nc2ccccc2C(F)(F)F)cc1 [Compound 11]")
18

We now examine a further compound.
Which value of zone of inhibition at 1250 µg/mL has been reported for Cc1ccc(S(=O)(=O)NC(=O)Nc2cc(C(F)(F)F)cc(C(F)(F)F)c2)cc1 [Compound 9] in the records?
30

---

Record form. Attribute: IC50. Fill in for each entry.
# System: hepatocellular carcinoma cell line (HePG2)
# PROCEDURE DETAILS: cells
# Type: cell-based
# CONDITION NOTES: Homo sapiens, MTT, 48 h
Give bare numbers, in µM.

>>> recorded_measurement("Cc1ccc(S(=O)(=O)NC(=O)Nc2cc(C(F)(F)F)cc(C(F)(F)F)c2)cc1")
12.4

// each molecule listed below needs its IC50
1. Cc1ccc(S(=O)(=O)NC(=O)Nc2ccc(OC(F)(F)F)cc2)cc1
2. Cc1ccc(NC(=O)Nc2ccc(C(F)(F)F)cc2)cc1
3. Cc1ccc(NC(=O)Nc2ccccc2C(F)(F)F)cc1
4. COc1cccc2c1C(=O)c1c(O)c3c(c(O)c1C2=O)C[C@@](O)(C(=O)CO)C[C@@H]3O[C@H]1C[C@H](N)[C@H](O)[C@H](C)O1 [Doxorubicin, reference compound]
5. Cc1ccc(S(=O)(=O)NC(=O)Nc2ccc(C(F)(F)F)cc2)cc1

1: 74; 2: 122; 3: 199; 4: 39.7; 5: 97.4

---

# Tested on: Candida albicans
# PROCEDURE DETAILS: MIC by serial dilution (agar wells), C. albicans
# Format: cell-based
# CONDITION NOTES: 10.0 mg/mL, 150 µL in DMSO, 15 mm agar well
EXPERIMENTAL ENDPOINT: zone of inhibition at 10000 µg/mL (mm)
One number for each entry, in mm.

Example results:
>>> recorded_measurement("Cc1ccc(S(=O)(=O)NC(=O)Nc2ccccc2C(F)(F)F)cc1")
28
>>> recorded_measurement("Cc1ccc(S(=O)(=O)NC(=O)Nc2ccc(OC(F)(F)F)cc2)cc1")
34
>>> recorded_measurement("Cc1ccc(S(=O)(=O)NC(=O)Nc2ccc(C(F)(F)F)cc2)cc1")
29

We now examine a further compound.
Which value of zone of inhibition at 10000 µg/mL has been reported for "Cc1ccc(S(=O)(=O)NC(=O)Nc2cc(C(F)(F)F)cc(C(F)(F)F)c2)cc1" in the records?
36

---

# System: Escherichia coli
# PROCEDURE DETAILS: MIC by serial dilution (agar wells), E. coli
# Assay type: cell-based
# CONDITION NOTES: 0.0391 mg/mL, 150 µL in DMSO, 15 mm agar well
EXPERIMENTAL ENDPOINT: zone of inhibition at 39.1 µg/mL
Please format your answer as a value with the unit trailing.

Example results:
>>> recorded_measurement("Cc1ccc(S(=O)(=O)NC(=O)Nc2ccc(OC(F)(F)F)cc2)cc1")
"18 mm"
>>> recorded_measurement("Cc1ccc(S(=O)(=O)NC(=O)Nc2ccc(C(F)(F)F)cc2)cc1")
"18 mm"
>>> recorded_measurement("Cc1ccc(S(=O)(=O)NC(=O)Nc2cc(C(F)(F)F)cc(C(F)(F)F)c2)cc1")
"0 mm"

We now examine a further compound.
Which value of zone of inhibition at 39.1 µg/mL has been reported for "Cc1ccc(S(=O)(=O)NC(=O)Nc2ccccc2C(F)(F)F)cc1" in the records?
0 mm
